The reported numbers originate from patent US20250326771A1.

subject of test: cIAP1-BIR3 (Homo sapiens (Human))
assay explanation: BIR binding assay (FRET competition), cIAP1 BIR3
condition notes: fold separation (FS) for cIAP1
readout kind: cIAP1 BIR3 vs BIR2 separation window

* C[C@@H]1CN(CC(=O)N2CC(C)(C)c3[nH]c(=O)c(Cc4ccc(F)cc4)cc32)[C@@H](CN2CCO[C@H](COCCCCCOC[C@@H]3CN(C[C@H]4CN[C@H](C)CN4CC(=O)N4CC(C)(C)c5[nH]c(=O)c(Cc6ccc(F)cc6)cc54)CCO3)C2)CN1 | ++++ (FS>10,000)
* C[C@@H]1CN(CC(=O)N2CC(C)(C)c3[nH]c(=O)c(Cc4ccc(F)cc4)cc32)[C@@H](CN2CCN(Cc3c(F)c(F)c(CN4CCN(C[C@H]5CN[C@H](C)CN5CC(=O)N5CC(C)(C)c6[nH]c(=O)c(Cc7ccc(F)cc7)cc65)[C@H](C)C4)c(F)c3F)C[C@H]2C)CN1 | +++ (10,000>FS>1,000)
* C[C@@H]1CN(CC(=O)N2CC(C)(C)c3[nH]c(=O)c(Cc4ccc(F)cc4)cc32)[C@@H](CN2CCN(C(=O)COc3cccc(OCC(=O)N4CCN(C[C@H]5CN[C@H](C)CN5CC(=O)N5CC(C)(C)c6[nH]c(=O)c(Cc7ccc(F)cc7)cc65)[C@H](C)C4)c3)C[C@H]2C)CN1 | ++ (1,000>FS>100)
* C[C@@H]1CN(CC(=O)N2CC(C)(C)c3[nH]c(=O)c(Cc4ccc(F)cc4)cc32)[C@@H](CN2CCO[C@H](COc3cc(C#N)cc(OC[C@@H]4CN(C[C@H]5CN[C@H](C)CN5CC(=O)N5CC(C)(C)c6[nH]c(=O)c(Cc7ccc(F)cc7)cc65)CCO4)c3)C2)CN1 | +++ (10,000>FS>1,000)

Read the next record carefully.
Query: Any idea what cIAP1 BIR3 vs BIR2 separation window was measured for C[C@@H]1CN(CC(=O)N2CC(C)(C)c3[nH]c(=O)c(Cc4ccc(F)cc4)cc32)[C@@H](CN2CCO[C@H](COc3cccc(OC[C@@H]4CN(C[C@H]5CN[C@H](C)CN5CC(=O)N5CC(C)(C)c6[nH]c(=O)c(Cc7ccc(F)cc7)cc65)CCO4)c3Br)C2)CN1 ?
Result: +++ (10,000>FS>1,000)

---

In this section, each of the molecules is paired with its reported pIC50.
subject of test: cIAP1-BIR2 (Homo sapiens (Human), UniProt Q13490)
Sequence (Q13490 173-257): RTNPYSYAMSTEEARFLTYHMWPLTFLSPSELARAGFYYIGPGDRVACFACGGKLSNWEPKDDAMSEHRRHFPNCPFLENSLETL
assay explanation: BIR binding assay (FRET competition), cIAP1 BIR2
pIC50: −log10 of the molar value.

- C[C@@H]1CN(CC(=O)N2CC(C)(C)c3[nH]c(=O)c(Cc4ccc(F)cc4)cc32)[C@@H](CN2CCN(C(=O)c3ccc4cc(C(=O)N5CCN(C[C@H]6CN[C@H](C)CN6CC(=O)N6CC(C)(C)c7[nH]c(=O)c(Cc8ccc(F)cc8)cc76)[C@H](C)C5)ccc4c3)C[C@H]2C)CN1 [Example 18]: 5.50 to 6.00
- C[C@@H]1CN(CC(=O)N2CC(C)(C)c3[nH]c(=O)c(Cc4ccc(F)cc4)cc32)[C@@H](CN2CCO[C@H](COCCCCCOC[C@@H]3CN(C[C@H]4CN[C@H](C)CN4CC(=O)N4CC(C)(C)c5[nH]c(=O)c(Cc6ccc(F)cc6)cc54)CCO3)C2)CN1 [Example 82]: 4.29 to 5.00

Query: Any idea what pIC50 was measured for C[C@@H]1CN(CC(=O)N2CC(C)(C)c3[nH]c(=O)c(Cc4ccc(F)cc4)cc32)[C@@H](CN2CCO[C@H](COc3cc(C#N)cc(OC[C@@H]4CN(C[C@H]5CN[C@H](C)CN5CC(=O)N5CC(C)(C)c6[nH]c(=O)c(Cc7ccc(F)cc7)cc65)CCO4)c3)C2)CN1 [Example 76] ?
Result: 5.00 to 5.50

Query: Any idea what pIC50 was measured for C[C@@H]1CN(CC(=O)N2CC(C)(C)c3[nH]c(=O)c(Cc4ccc(Cl)cc4Cl)cc32)[C@@H](CN2CCO[C@H](C(=O)NCc3ccc(CNC(=O)[C@@H]4CN(C[C@H]5CN[C@H](C)CN5CC(=O)N5CC(C)(C)c6[nH]c(=O)c(Cc7ccc(Cl)cc7Cl)cc65)CCO4)cc3)C2)CN1 [Compound 165] ?
Result: 5.50 to 6.00

---

In this section, each of the molecules is paired with its reported EC50.
Test system: Jurkat HIV-luciferase clones
assay explanation: Jurkat latency reversal assay
Assay type: cell-based
condition notes: Homo sapiens, 48 h; Jurkat latency reversal assay potency; read-out: Jurkat pEC50 (converted)

These recorded examples may help you get a feel for the data.
• Cc1ccc(Oc2cc3c([nH]c2=O)C(C)(C)CN3C(=O)CN2C[C@@H](C)NC[C@@H]2CN2CCO[C@H](C(=O)NCc3ccc(CNC(=O)[C@@H]4CN(C[C@H]5CN[C@H](C)CN5CC(=O)N5CC(C)(C)c6[nH]c(=O)c(Oc7ccc(C)cc7)cc65)CCO4)cc3)C2)cc1 = 316 to 3310 nM
• C[C@@H]1CN(CC(=O)N2CC(C)(C)c3[nH]c(=O)c(Cc4ccc(F)cc4)cc32)[C@@H](CN2CCN(C(=O)c3ccnc(-c4cc(C(=O)N5CCN(C[C@H]6CN[C@H](C)CN6CC(=O)N6CC(C)(C)c7[nH]c(=O)c(Cc8ccc(F)cc8)cc76)[C@H](C)C5)ccn4)c3)C[C@H]2C)CN1 = 63.1 to 316 nM
• C[C@@H]1CN(CC(=O)N2CC(C)(C)c3ncc(Cc4cccnc4)cc32)[C@@H](CN2CCO[C@H](COc3cccc(OC[C@@H]4CN(C[C@H]5CN[C@H](C)CN5CC(=O)N5CC(C)(C)c6ncc(Cc7cccnc7)cc65)CCO4)c3)C2)CN1 = 316 to 3310 nM

Read the next record carefully.
Query: Any idea what EC50 was measured for C[C@@H]1CN(CC(=O)N2CC(C)(C)c3ncc(Cc4ccccc4)cc32)[C@@H](CN2CCO[C@H](COc3cccc(OC[C@@H]4CN(C[C@H]5CN[C@H](C)CN5CC(=O)N5CC(C)(C)c6ncc(Cc7ccccc7)cc65)CCO4)c3)C2)CN1 ?
Result: 12.6 to 63.1 nM

---

In this section, each of the compounds is paired with its reported IC50.
subject of test: cIAP1-BIR3 (Homo sapiens (Human), UniProt Q13490)
Sequence (Q13490 253-363): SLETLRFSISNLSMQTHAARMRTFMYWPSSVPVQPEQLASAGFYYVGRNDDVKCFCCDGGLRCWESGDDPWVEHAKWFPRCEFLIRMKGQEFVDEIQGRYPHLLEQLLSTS
assay explanation: BIR binding assay (FRET competition), cIAP1 BIR3

These recorded examples may help you get a feel for the data.
- C[C@@H]1CN(CC(=O)N2CC(C)(C)c3[nH]c(=O)c(Cc4ccc(F)cc4)cc32)[C@@H](CN2CCC[C@@H](NC(=O)Cc3ccc(CC(=O)N[C@@H]4CCCN(C[C@H]5CN[C@H](C)CN5CC(=O)N5CC(C)(C)c6[nH]c(=O)c(Cc7ccc(F)cc7)cc65)C4)cc3)C2)CN1: 15.8 to 31.6 nM
- C[C@@H]1CN(CC(=O)N2CC(C)(C)c3[nH]c(=O)c(Cc4ccc(F)cc4)cc32)[C@@H](CN2CCC(CN(C)C(=O)Cc3ccc(CC(=O)N(C)CC4CCN(C[C@H]5CN[C@H](C)CN5CC(=O)N5CC(C)(C)c6[nH]c(=O)c(Cc7ccc(F)cc7)cc65)CC4)cc3)CC2)CN1: 1.38 to 7.94 nM
- C[C@@H]1CN(CC(=O)N2CC(C)(C)c3[nH]c(=O)c(Cc4ccc(F)cc4)cc32)[C@@H](CN2CCO[C@H](C(=O)NCC(C)(C)CNC(=O)[C@@H]3CN(C[C@H]4CN[C@H](C)CN4CC(=O)N4CC(C)(C)c5[nH]c(=O)c(Cc6ccc(F)cc6)cc54)CCO3)C2)CN1: 7.94 to 15.8 nM
- C[C@@H]1CN(CC(=O)N2CC(C)(C)c3[nH]c(=O)c(Cc4ccc(F)cc4)cc32)[C@@H](CN2CCO[C@H](COc3ccc(CCc4ccc(OC[C@@H]5CN(C[C@H]6CN[C@H](C)CN6CC(=O)N6CC(C)(C)c7[nH]c(=O)c(Cc8ccc(F)cc8)cc76)CCO5)cc4)cc3)C2)CN1: 15.8 to 31.6 nM
- C[C@@H]1CN(CC(=O)N2CC(C)(C)c3[nH]c(=O)c(Cc4ccc(Cl)cc4Cl)cc32)[C@@H](CN2CCO[C@H](C(=O)NCc3ccc(CNC(=O)[C@@H]4CN(C[C@H]5CN[C@H](C)CN5CC(=O)N5CC(C)(C)c6[nH]c(=O)c(Cc7ccc(Cl)cc7Cl)cc65)CCO4)cc3)C2)CN1: 7.94 to 15.8 nM
- C[C@@H]1CN(CC(=O)N2CC(C)(C)c3[nH]c(=O)c(Cc4ccc(F)cc4)cc32)[C@@H](CN2CCC(CCOc3cccc(OCCC4CCN(C[C@H]5CN[C@H](C)CN5CC(=O)N5CC(C)(C)c6[nH]c(=O)c(Cc7ccc(F)cc7)cc65)CC4)c3)CC2)CN1: 15.8 to 31.6 nM

Query: Any idea what IC50 was measured for C[C@@H]1CN(CC(=O)N2CC(C)(C)c3[nH]c(=O)c(Cc4ccc(Cl)cc4)cc32)[C@@H](CN2CCO[C@H](C(=O)NCc3ccc(CNC(=O)[C@@H]4CN(C[C@H]5CN[C@H](C)CN5CC(=O)N5CC(C)(C)c6[nH]c(=O)c(Cc7ccc(Cl)cc7)cc65)CCO4)cc3)C2)CN1 ?
Result: 1.38 to 7.94 nM
